Some molecules, each annotated with its measured melting point.

Field request: melting point | item: O=C1c2ccccc2C=C(Cl)C(Cl)c2ccccc21 (stereo not given)
123 to 125 °C

###

test-readout: melting point

Some compounds with recorded melting point:
CN1CC(CCCl)Oc2ccc(F)cc2C1=S (configuration not stated) :: 135 to 137 °C
O=c1c2ccc(Cl)cc2[nH]c2c(O)nn(-c3ccc(O)cc3)c(=O)c12 :: 316 to 318 °C

Look up melting point: Nc1nc(CC(=O)Nc2cccc(C(F)(F)F)c2)cs1
116 to 118 °C

What would you report for COCCn1nc2c(N)nc3c(c2c1CC(C)(C)O)CCCC3 ?
163 to 165 °C

Try the compound CC(C)CCCC(C)CCOc1ccc2c(c1)[nH]c1ccccc12 (configuration not stated)
188 °C

Then this compound: O=C1c2ccccc2C(=O)c2c1nc1c(Cl)cccn21
> 300 °C

# iterate: C(=C1CN2CCC1CC2)c1ccc(-c2ccccc2)cc1
107 °C

# iterate: CC(=O)OC(c1ccc(NC(=O)c2ccc(-c3ccc(Cl)cc3)cc2)cc1)C1CCCNC1 (configuration not stated)
200 to 203 °C

###

test-readout: melting point

These recorded examples may help you get a feel for the data.
O=S(=O)(c1ccccc1)n1cc(I)c2c(OCc3ccccc3)ccnc21 :: 177 to 179 °C
Cc1cc(C(=O)O)cc(C)c1OCCNC(=O)C1Cc2ccccc2N1S(=O)(=O)c1ccc(-c2ccc(F)cc2)cc1 (stereo not given) :: 124 to 128 °C
COc1cc2ncnc(Nc3ccc(F)c(Cl)c3)c2cc1OCC1(C)COC1 :: 226 to 227 °C
CN(C)c1ccc(-c2cccc3c2C2(COc4cc5c(cc42)OCO5)C(=O)N3Cc2ccc(C(F)(F)F)o2)cn1 (stereo not given) :: 174 to 176 °C
CN1CCC[C@H]1c1cnc(Cl)cc1C(O)c1cc(Cl)ncc1[C@@H]1CCCN1C :: 80 to 82 °C
CNc1cc(N2CCCNCC2)ccc1S(=O)(=O)c1cccc(F)c1 :: 153 to 154 °C
CC(C)(C)OC(=O)Nc1ccc(-c2ccc(OCc3ccccc3)nc2)cc1[N+](=O)[O-] :: 119 to 122 °C
Cc1ccc(-c2ncc(-c3cccs3)s2)cc1 :: 85.5 to 86.5 °C
C#CCN(c1ccc(C(=O)NC(CCCCC(=O)O)C(=O)O)cc1)C1CCc2cc3nc(C)[nH]c(=O)c3cc21 (mixture of isomers) :: 165 °C
CC=C(CC)c1nc(C)nc2c1c(C)c(C)n2-c1c(C)cc(C)cc1C :: 59 to 61 °C

Would you mind telling me what melting point value was observed for COc1cc(C(=O)C#CCOC(C)=O)cc(OC)c1OC ?
104 to 105 °C

What do you have for CC1(C)CC(=O)C1(Br)CC(Br)(Br)Br (stereo not given) ?
61 to 63 °C

Moving on to CC(=O)Nc1ccc(C=C2c3ccccc3CCc3ccccc32)cc1
135 °C

How about Cc1cc(Cn2c(-c3ccccc3)nc(Cl)c2CC(=O)O)ccc1OCc1ccccc1 ?
177 to 178 °C

Try O=C(O)c1ccc(C(Cl)=C(Cl)Cl)cn1 next.
158 to 159 °C

What do we get for O=c1c2c(Cc3cccs3)n[nH]c2c2cccnc2n1-c1ccccc1 ?
282 to 284 °C

Record: COC(=O)C(=CNc1ccc(O)cc1C)C(=O)C=CC1=CCCC1
148 to 151 °C
